B1: Proto-oncogene vav, residues 782 to 842; numbered along this chain, P15498 (parent)
chain: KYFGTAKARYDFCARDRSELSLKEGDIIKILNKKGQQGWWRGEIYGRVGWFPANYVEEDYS

Variants of: B1
Test: abundance fitness (aPCA) (normalised: wild type 0, dead -1); higher = more abundant; growth selection in yeast, the domain comes from the species named
Settings: Homo sapiens
Could you label it Satisfied if measured abundance fitness is -0.3 or higher, and Not satisfied otherwise?

{"Sequence Change": "D11Q", "Classification": "Not satisfied"}
{"Sequence Change": "W40S", "Classification": "Not satisfied"}
{"Sequence Change": "L20S", "Classification": "Not satisfied"}
{"Sequence Change": "A14P", "Classification": "Not satisfied"}
{"Sequence Change": "G4D", "Classification": "Satisfied"}
{"Sequence Change": "G4P", "Classification": "Satisfied"}

Exam item: Entry "T5L" : is its abundance fitness no less than -0.3?
Marked response: Satisfied

Exam item: Entry "K33I" : is its abundance fitness no less than -0.3?
Marked response: Not satisfied

Exam item: Entry "D26Y" : is its abundance fitness no less than -0.3?
Marked response: Not satisfied

Exam item: Entry "A53Q" : is its abundance fitness no less than -0.3?
Marked response: Satisfied

Exam item: Entry "L22H" : is its abundance fitness no less than -0.3?
Marked response: Not satisfied

Exam item: Entry "D11S" : is its abundance fitness no less than -0.3?
Marked response: Satisfied

Exam item: Entry "W50F" : is its abundance fitness no less than -0.3?
Marked response: Not satisfied

Exam item: Entry "K29H" : is its abundance fitness no less than -0.3?
Marked response: Satisfied

Exam item: Entry "S18E" : is its abundance fitness no less than -0.3?
Marked response: Satisfied

Exam item: Entry "L31D" : is its abundance fitness no less than -0.3?
Marked response: Not satisfied
